- Tested on: SFs and PMCs
- assay_protocol: Compound cytotoxicity, Crystal Violet assay
- Format: cell-based, mice
- Procedure: The toxicity of the test compounds was assessed at several concentrations using the Crystal Violet assay on both SFs and PMCs. Adherent viable cells were Methanol fixed and stained with Crystal Violet. Optical density was quantified at […], as described in Feoktistova et al., 2016.
recorded_metric: Cell Toxicity

// solved cases for Cell Toxicity follow
Summary for this compound, "COc1cc(N)c(Cl)cc1C(=O)NCC1(c2ccc(Cl)cc2)CCCCCC1" : Cell Toxicity is >200 µM

Summary for this compound, "COc1cc(N)c(Cl)cc1C(=O)NCC1(N2CCSCC2)CCCCCC1" : Cell Toxicity is >100 µM

Summary for this compound, "COc1cc(N)c(Cl)cc1C(=O)NCC1(Nc2ccc(F)cc2Cl)CCCCCC1" : Cell Toxicity is >150 µM

// batch mode: one Cell Toxicity value per listed entry
1. COc1cc(N)c(Cl)cc1C(=O)NCC1(c2ccc(F)cc2)CCCCCC1
2. COc1cc(N)c(Cl)cc1C(=O)NCC1(Nc2cccc(OC(F)(F)F)c2)CCCCCC1

Result:
[">25 µM", ">25 µM"]
